Reference for the values: patent US20170306031A1

Target: T1, mouse GFRAL (analyte in Biacore assays) (mouse, UniProt Q6SJE0 20-349, limits assumed)
T1 construct: injected in solution over captured antibody
T1 sequence: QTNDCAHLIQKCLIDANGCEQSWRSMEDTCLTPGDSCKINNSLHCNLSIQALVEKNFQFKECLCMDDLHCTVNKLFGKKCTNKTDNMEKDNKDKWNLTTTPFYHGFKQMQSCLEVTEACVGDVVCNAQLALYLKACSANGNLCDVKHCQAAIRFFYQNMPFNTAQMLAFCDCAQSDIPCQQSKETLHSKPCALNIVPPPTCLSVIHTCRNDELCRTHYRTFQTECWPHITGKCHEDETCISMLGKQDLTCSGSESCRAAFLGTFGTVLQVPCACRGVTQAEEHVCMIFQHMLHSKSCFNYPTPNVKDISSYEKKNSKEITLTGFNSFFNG
Assay: Biacore SPR, antibody captured, GFRAL injected
quantity_measured: pKd
Please express pKd as -log10 of the molar concentration.

Known results for binders:
antibody designated 8D8 (antibody, V domains shown, mouse hybridoma monoclonal) VH: QVQLKESGPGLVAPSQSLSITCTVSGFSLSRYSVHWVRQPPGKGLEWLGMIWGFGSTDYNSALKSRLSITKDNSKSQFFLKMNSLQTDDTAMYYCARIHTTAGSYWGQGTLVTVSA VL: DIVMTQSQKFMSTSIGDRVSVTCKASQNVGTNVAWYQQKPGQSPKALVYSTSYRYSGVPDRFTGSGSGTDFTLTISNVQSEDLAEYFCHQYNSYPLTFGAGTKLELK : 8.09
antibody designated 22N5 (antibody, V domains shown, mouse hybridoma monoclonal) VH: QNQLVQSGPELKKPGEIVKISCKTSGYTFTDYSMHWVKKTPGKGFKWMGWINTETGEPTYADDFKGRFAFSLETSANTAHLQITNLKNEDTATYFCVKGTLNYWGQGTTLTVSS VL: DIKMTQSPSSMYASLGERVTITCKASQDIKSYLNWFQQKPGKSPKTLIYRTKRLVDGVPSRFSGSGSGQDYSLTVSSLEYDDVGIYYCLQYVEFPLTFGDGTKLELK : 8.46
antibody designated 25M22 (antibody, V domains shown, mouse hybridoma monoclonal) VH: QVQLQQSGPDLVKPGASVKISCKASGYTFTSYWVNWMKQRPGKGLEWIGRIYPGDGDTNYNGKFKGKATLTADKSSSTAYMQLSSLTSEDSAVYFCARAYLLRLRRTGYYAMDYWGQGTSVTVSS VL: DVVLTQTPLSLPVNIGDQASISCKSTKSLLNSDEFTYLDWYLQKPGQSPQLLIFLVSNRFSGVPDRFSGSGSGTDFTLKISRVEAEDLGVYYCFQSNYLPYTFGGGTKLEIK : 8.38

Note: attention shifts to another entry.
Prompt: pKd for antibody designated 2B11 (antibody, V domains shown, mouse hybridoma monoclonal) VH: DVQLQESGPGLVKPSQSLSLTCSVTGYSITSGYYWNWIRQFPGNKLEWMGHIANDGSNYYNPFLKHRVSITRDTSKNQFFLKLNSVTIQDTATYYCARGGSYFDYVDYWGQGTTLTVSS VL: DIQMTQTTSSLSASLGDRVTINCRASQDISNYLNWYQQKPDGTVKLLIYYTSRLHSGVPSRFSGSGSGTDYSLTITNLEQEDIATYFCQQGNTLPFTFGSGTKLEIK ?
Response: 8.43
